System: CCRF-CEM (childhood T cell acute lymphoblastic leukemia)
protocol_notes: Cytotoxic MTS assay, CCRF-CEM
Type: cell-based, human
study_conditions: Homo sapiens, CCRF-CEM; MTS, 72 h of incubation; read-out: Cytotoxic activity IC50, CCRF-CEM
property: IC50 (nM)
Only the number, expressed in nM, is required.

Reference set, count: 2
Cc1cc(C)cc(C(=O)OCC[S+]([O-])c2ccnc3cc(Cl)ccc23)c1 (stereo not drawn) [Compound 50]: 1320
COc1ccc(C(=O)OCCC[S+]([O-])c2ccnc3cc(Cl)ccc23)cc1 (stereo not drawn) [Compound 53]: 1310

Next up:
Q: Quick check: IC50 of O=C(OCCC[S+]([O-])c1ccnc2cc(Cl)ccc12)c1ccc(C(F)(F)F)cc1 (stereo not drawn) [Compound 62] ?
Ans: 1170

----------
IC50 reference
System: CCRF-CEM (childhood T cell acute lymphoblastic leukemia)
protocol_notes: Cytotoxic MTS assay, CCRF-CEM
Assay type: cell-based, human
study_conditions: Homo sapiens, CCRF-CEM; MTS, 72 h of incubation; read-out: Cytotoxic activity IC50, CCRF-CEM
Experimental: In vitro cytotoxic activity of final compounds 5–82 was evaluated after 3 days of incubation against eight cell lines derived from human solid tumors including lung (A549 cells) and colon (HCT116 and HCT116p53−/−) carcinomas, as well as leukemia cell lines (CCRF-CEM, CEM-DNR, K562, and K562-TAX) and osteosarcoma (U2OS cells). […] Cytotoxic activity was determined by MTS assay following 72 h of incubation. […]
Output spec: scalar in nM, unitless text.

Cc1ccc([N+](=O)[O-])c(C(=O)OCC[S+]([O-])c2ccnc3cc(Cl)ccc23)c1 (stereo not shown): 1340
COc1cc(C(=O)OCCC[S+]([O-])c2ccnc3cc(Cl)ccc23)cc(OC)c1OC (stereo not shown): 1510
Cc1ccc([N+](=O)[O-])c(C(=O)OCCC[S+]([O-])c2ccnc3cc(Cl)ccc23)c1 (stereo not shown): 1130
COc1cc(C(=O)OCCS(=O)(=O)c2cc[n+]([O-])c3cc(Cl)ccc23)cc(OC)c1OC: 1050
COc1cccc(C(=O)OCCC[S+]([O-])c2ccnc3cc(Cl)ccc23)c1OC (stereo not shown): 1090
Cc1cc(C)cc(C(=O)OCCC[S+]([O-])c2ccnc3cc(Cl)ccc23)c1 (stereo not shown): 1050

Attention now turns to another entry.
Q: IC50 lookup needed for COc1ccccc1C(=O)OCC[S+]([O-])c1ccnc2cc(Cl)ccc12 (stereo not shown) , thanks.
Ans: 2740

----------
protocol_notes: Cytotoxic MTS assay, MRC-5LD
Assay type: cell-based, human
study_conditions: human; MTS, 72 h of incubation; read-out: Cytotoxic activity IC50, MRC5-LD
Please note: IC50 at 72 h exactly at 20 µM is NOT MET. Only values below 20 µM get MET.

Q: Determine if COc1ccc(C(=O)OCCC[S+]([O-])c2ccnc3cc(Cl)ccc23)cc1[N+](=O)[O-] (centres unmarked) [Compound 59] shows IC50 at 72 h strictly lower than 20 µM.
Ans: MET

Q: Please give the result for O=C(OCCC[S+]([O-])c1ccnc2cc(Cl)ccc12)c1ccc(C(F)(F)F)cc1 (centres unmarked) [Compound 62] too.
Ans: NOT MET

Q: Would you kindly repeat that for COc1ccccc1C(=O)OCC[S+]([O-])c1ccnc2cc(Cl)ccc12 (centres unmarked) [Compound 47] ?
Ans: NOT MET

Q: What do we get for COc1ccc(C(=O)OCCC[S+]([O-])c2ccnc3cc(Cl)ccc23)cc1 (centres unmarked) [Compound 53] ?
Ans: NOT MET

Q: Repeat with [O-][S+](CCO)c1ccnc2cc(Cl)ccc12 (centres unmarked) [Compound 41]
Ans: NOT MET
